Tested on: Plasmodium falciparum
experimentSummary: GSK_TCMDC: Inhibition of Plasmodium falciparum Dd2 in whole red blood cells, using parasite LDH activity as an index of growth. Test compounds present at 2uM
Format: functional
Returns Criterion met if the recorded Inhibition is greater than or equal to 80%, and Criterion not met otherwise.

Can CC(C)NC(=O)c1cccc(-c2ccc(OCCN3CCCC3c3cc4ccccc4[nH]3)cc2)c1 (centres undefined) be said to have Inhibition at or above 80%?
Criterion not met

Can "COc1nc2c(CCN3CC[C@H](NCc4cc(C#N)c5c(c4)OCCO5)[C@H](O)C3)ccnc2cc1F" be said to have Inhibition at or above 80%?
Criterion not met

Can "Cn1nc(-c2ccccc2F)c2cc(C(=O)NC3CCN(Cc4ccccc4)CC3)sc21" be said to have Inhibition at or above 80%?
Criterion not met

Can "O=C(O)C(F)(F)F.O=S(=O)(NCCN1CCCC1)c1ccc(-c2cccc(CNC3Cc4ccccc4C3)c2)cc1F" be said to have Inhibition at or above 80%?
Criterion not met

Can O=C(/C=C/c1cccs1)NCC(NCCCNc1cc(=O)c2ccccc2[nH]1)c1cc(Br)cc(Br)c1 (centres undefined) be said to have Inhibition at or above 80%?
Criterion not met

Can "O=C(Nc1cc(C(F)(F)F)cc(C(F)(F)F)c1)c1cc(C(F)(F)F)cc(C(F)(F)F)c1" be said to have Inhibition at or above 80%?
Criterion met

Can "CCc1c[nH]c2c(N3CCCS3(=O)=O)cc(C(=O)N[C@@H](Cc3ccccc3)[C@H](O)CNC3CCCCC3)cc12.O=CO" be said to have Inhibition at or above 80%?
Criterion met

Can "COc1ccc(CCN(C)CCOc2ccc(NC(=O)c3cc(SC)cc4c(=O)c5ccccc5[nH]c34)cc2)cc1OC" be said to have Inhibition at or above 80%?
Criterion not met

Can "Cc1cc(N[C@@H](CC(C)C)C(=O)NCc2cccs2)nc(Nc2ccccc2)n1.O=C(O)C(F)(F)F" be said to have Inhibition at or above 80%?
Criterion not met

Can COc1ccccc1C1CCN(C2CCC(NC(=O)/C=C/c3cccc(C(F)(F)F)c3)CC2)CC1 (centres undefined) be said to have Inhibition at or above 80%?
Criterion not met

Can "COc1ccc2nc(-c3ccccc3)cc(N/N=C/c3ccc([N+](=O)[O-])cc3)c2c1" be said to have Inhibition at or above 80%?
Criterion met

Can "Cc1[nH]c(C)c(-c2ccc(CCc3cccc(C(F)(F)F)c3)nc2)c(=O)c1Cl" be said to have Inhibition at or above 80%?
Criterion met

Can "COc1ccc(Nc2ncc3c(-c4cccc(NC(=O)Cc5ccncc5)c4)c[nH]c3n2)cc1OC" be said to have Inhibition at or above 80%?
Criterion met

Can "O=C(NCCN1CCCC1)c1cccc(-c2ccc(-c3nc4ccccc4[nH]3)s2)c1" be said to have Inhibition at or above 80%?
Criterion not met

Can "O=C(C=Cc1ccc(Cl)c(Cl)c1)NCCCCCN1CCC(CCCNC(=O)/C=C/c2ccccc2)CC1" be said to have Inhibition at or above 80%?
Criterion not met

Can "COc1ccc(CNC2Cc3ccccc3C2)cc1-c1ccc(S(=O)(=O)NCc2cccnc2)s1.O=C(O)C(F)(F)F" be said to have Inhibition at or above 80%?
Criterion not met

Can CC(C)C[C@H](NC(=O)c1cc2ccccc2s1)C(=O)N[C@H]1CCN(Cc2ccc(I)c(OC3CCN(C)C3)c2)C1.O=C(O)C(F)(F)F (some centres undefined) be said to have Inhibition at or above 80%?
Criterion met
